Values compiled from patent US11453657B2.

System: P. falciparum infected erythrocytes
Assay: P. falciparum growth inhibition assay ([3H]hypoxanthine incorporation)
Format: cell-based, Plasmodium falciparum
Details: Plasmodium falciparum, Erythrocyte; read-out: average PfIC50
pIC50: −log10 of the molar value.
Measurement kind: pIC50

O=C(c1ccc(OC[C@H](O)Cn2cccn2)cc1)N1CC[C@H](c2ccc(F)cc2)C1 ... ≥ 7.30
O=C(c1ccc(OC[C@H](F)Cn2ncnn2)cc1)N1CC[C@H](c2ccc(F)cc2)C1 ... ≥ 7.30

Here's the next entry for you.
stdin: Which pIC50 value belongs to `N[C@@H](COc1ccc(C(=O)N2CC[C@H](c3ccc(Cl)cc3)C2)cc1)Cn1ncnn1` ?
stdout: ≥ 7.30
